Just for reference, patent US11578073B2 is where these values come from.

Assay: cell viability assay (cytotoxicity) in HEK293 cells
Format: cell-based
Conditions: human, read-out: CC50 (50% cytotoxicity concentration)
What CC50 was measured for each of the following?
Give your result in µM as a bare value.

Query: What value of measured CC50 is listed for C=C(C)c1ccc(CN2CCN(c3nc4c(c(=O)[nH]c(=O)n4C)n3Cc3ccccc3F)CC2)cc1 ?
Reply: 22

Query: What value of measured CC50 is listed for Cc1ccc(C)c(CN2CCN(c3nc4c(c(=O)[nH]c(=O)n4C)n3Cc3ccccc3C(F)(F)F)CC2)c1 ?
Reply: 12

---

Experiment: cell viability assay (cytotoxicity) in HEK293 cells
Type: cell-based
Conditions: human, read-out: CC50 (50% cytotoxicity concentration)
What CC50 was measured for each of the following?
Give your result in µM as a bare value.

Query: What value of measured CC50 is listed for Cn1c(=O)[nH]c(=O)c2c1nc(N1CCC(c3ccccc3)CC1)n2Cc1ccccc1F ?
Reply: 10.7

Query: What value of measured CC50 is listed for Cn1c(=O)n(CCO)c(=O)c2c1nc(N1CCN(Cc3ccc(C(C)(C)C)cc3)CC1)n2Cc1ccccc1F ?
Reply: 12

Query: What value of measured CC50 is listed for CC(C)c1ccc(CN2CCN(c3nc4c(c(=O)[nH]c(=O)n4C)n3Cc3ccccc3F)CC2)cc1 ?
Reply: 24
